Experiment: Inhibition of MEK/ERK signaling pathway in TNFalpha-stimulated human A431 cells transfected with COT siRNA assessed as reduction in ERK1/2 phosphorylation incubated for 60 mins followed by stimulation with TNFalpha for 10 mins by Western blot analysis
Type: cell-based
Settings: A-431
measured.endpoint: IC50 (nM)
The figure you give is taken to be in nM; do not add the unit.

Q: Any idea what IC50 was measured for c1cnc2ccc(-n3cnc4cnc5cnc(-c6ccsc6)cc5c43)cc2c1 ?
Result: 61

----------
Test: Metabolic stability in bile-duct cannulated Sprague-Dawley rat assessed as parent compound remaining in blood at 3 mg/kg, iv measured 4 hrs post dose
Type: ADME, organism-based
Conditions: read-out: Stability
Can you tell me remaining at 4 h for the items I'm about to list?

Q: Any idea what remaining at 4 h was measured for CC(CN1CCOCC1)Nc1nc2ccc(-n3cnc4cnc5cnc(-c6ccncc6)cc5c43)cc2s1 (configuration not stated) ?
Result: 20%

Q: Any idea what remaining at 4 h was measured for CC(CN1CCOCC1)Nc1nc2ccc(-n3cnc4cnc5cnc(-c6cccs6)cc5c43)cc2s1 (configuration not stated) ?
Result: 68%

----------
Assay: Drug excretion in bile-duct cannulated Sprague-Dawley rat feces at 3 mg/kg, iv measured 8 hrs post dose
Format: ADME, organism-based
Details: read-out: Drug excretion
measured.endpoint: dose excreted at 8 h (%)
The figure you give is taken to be in %; do not add the unit.

Q: Any idea what dose excreted at 8 h was measured for CC(CN1CCOCC1)Nc1nc2ccc(-n3cnc4cnc5cnc(-c6ccncc6)cc5c43)cc2s1 (stereo unspecified) ?
Result: 0.33

----------
Target: Receptor-type tyrosine-protein kinase FLT3 (Homo sapiens, UniProt P36888, D835Y)
Experiment: Inhibition of FLT3 (563 to 993 residues) D835Y mutant (unknown origin) after 60 mins in presence of ATP by caliper microfluidic mobility shift assay
measured.endpoint: IC50

Q: Any idea what IC50 was measured for c1cnc2ccc(-n3cnc4cnc5cnc(-c6ccsc6)cc5c43)cc2c1 ?
Result: < 340 nM

----------
Molecular target: Mitogen-activated protein kinase kinase kinase 8 (Homo sapiens, UniProt P41279)
Sequence (P41279 whole entry): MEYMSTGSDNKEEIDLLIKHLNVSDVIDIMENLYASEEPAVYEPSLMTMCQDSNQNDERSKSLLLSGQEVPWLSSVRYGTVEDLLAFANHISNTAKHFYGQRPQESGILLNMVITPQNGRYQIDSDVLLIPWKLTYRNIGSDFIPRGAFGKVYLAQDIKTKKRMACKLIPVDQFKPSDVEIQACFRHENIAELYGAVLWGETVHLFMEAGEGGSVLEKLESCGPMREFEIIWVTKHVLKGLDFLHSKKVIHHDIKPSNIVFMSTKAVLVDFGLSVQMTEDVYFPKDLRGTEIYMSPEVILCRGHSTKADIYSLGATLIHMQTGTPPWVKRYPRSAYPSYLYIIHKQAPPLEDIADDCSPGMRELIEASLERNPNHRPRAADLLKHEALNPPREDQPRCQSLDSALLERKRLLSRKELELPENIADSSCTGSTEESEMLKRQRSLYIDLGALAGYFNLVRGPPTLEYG
Assay: Inhibition of COT in LPS-stimulated human whole blood assessed as reduction in TNFalpha release incubated for 30 mins followed by stimulation with LPS for 3 hrs by HTRF assay
Format: tissue-based
measured.endpoint: log10 of IC50 (log10 of the value in nM)
Heads up, the numbers here are log10 of IC50 in nM units.

Q: Any idea what log10 of IC50 was measured for c1ccc(-c2cc3c(cn2)ncc2ncn(-c4ccc5nc(NCCN6CCOCC6)sc5c4)c23)cc1 ?
Result: 3.40

Q: Any idea what log10 of IC50 was measured for CC(CN1CCOCC1)Nc1nc2ccc(-n3cnc4cnc5cnc(-c6ccccc6)cc5c43)cc2s1 (configuration not stated) ?
Result: 3.00

Q: Any idea what log10 of IC50 was measured for CC(CN1CCOCC1)Nc1ccc2cc(-n3cnc4cnc5cnc(-c6ccncc6)cc5c43)ccc2n1 (racemic) ?
Result: 2.30

Q: Any idea what log10 of IC50 was measured for C[C@H](CN1CCOCC1)Nc1ccc2cc(-n3cnc4cnc5cnc(-c6ccncc6)cc5c43)ccc2n1 ?
Result: 1.90

Q: Any idea what log10 of IC50 was measured for c1cnc2ccc(-n3cnc4cnc5cnc(-c6ccsc6)cc5c43)cc2c1 ?
Result: 3.25

Q: Any idea what log10 of IC50 was measured for CC(CN1CCOCC1)Nc1nc2ccc(-n3cnc4cnc5cnc(-c6ccncc6)cc5c43)cc2s1 (configuration not stated) ?
Result: 2.78
